These data points were gathered from patent US20230072683A1.

tested_on: PI3K-δ (PI3K(p1108/p857) (h)) (Homo sapiens, UniProt O00329)
Sequence (O00329 whole entry): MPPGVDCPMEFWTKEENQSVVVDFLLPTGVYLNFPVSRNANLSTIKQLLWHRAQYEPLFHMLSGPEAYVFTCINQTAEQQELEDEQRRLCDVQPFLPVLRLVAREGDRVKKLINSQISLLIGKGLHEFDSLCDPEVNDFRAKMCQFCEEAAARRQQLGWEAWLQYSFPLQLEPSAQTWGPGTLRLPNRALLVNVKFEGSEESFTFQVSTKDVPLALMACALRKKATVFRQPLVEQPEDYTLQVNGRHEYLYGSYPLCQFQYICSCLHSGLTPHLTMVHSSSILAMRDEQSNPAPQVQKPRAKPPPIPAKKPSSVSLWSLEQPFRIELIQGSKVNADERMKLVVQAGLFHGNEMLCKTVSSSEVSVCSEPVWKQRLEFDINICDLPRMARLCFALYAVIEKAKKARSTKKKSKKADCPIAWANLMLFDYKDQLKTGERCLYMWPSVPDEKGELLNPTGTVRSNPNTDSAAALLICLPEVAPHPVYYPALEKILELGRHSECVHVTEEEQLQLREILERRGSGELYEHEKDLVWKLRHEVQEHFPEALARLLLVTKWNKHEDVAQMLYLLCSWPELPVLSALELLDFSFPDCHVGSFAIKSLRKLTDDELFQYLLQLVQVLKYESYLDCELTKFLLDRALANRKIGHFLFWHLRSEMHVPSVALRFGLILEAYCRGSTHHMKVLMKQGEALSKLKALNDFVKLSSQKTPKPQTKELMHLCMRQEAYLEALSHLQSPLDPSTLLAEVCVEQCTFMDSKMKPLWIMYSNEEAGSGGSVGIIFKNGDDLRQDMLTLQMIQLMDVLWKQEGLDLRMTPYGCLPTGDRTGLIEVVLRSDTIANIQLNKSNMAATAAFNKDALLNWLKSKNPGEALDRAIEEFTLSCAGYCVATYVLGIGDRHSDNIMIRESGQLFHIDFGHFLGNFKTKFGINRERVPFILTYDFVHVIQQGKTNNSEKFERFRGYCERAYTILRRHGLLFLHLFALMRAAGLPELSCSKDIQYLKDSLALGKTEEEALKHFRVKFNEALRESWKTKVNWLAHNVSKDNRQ
Sequence (P27986 whole entry partner): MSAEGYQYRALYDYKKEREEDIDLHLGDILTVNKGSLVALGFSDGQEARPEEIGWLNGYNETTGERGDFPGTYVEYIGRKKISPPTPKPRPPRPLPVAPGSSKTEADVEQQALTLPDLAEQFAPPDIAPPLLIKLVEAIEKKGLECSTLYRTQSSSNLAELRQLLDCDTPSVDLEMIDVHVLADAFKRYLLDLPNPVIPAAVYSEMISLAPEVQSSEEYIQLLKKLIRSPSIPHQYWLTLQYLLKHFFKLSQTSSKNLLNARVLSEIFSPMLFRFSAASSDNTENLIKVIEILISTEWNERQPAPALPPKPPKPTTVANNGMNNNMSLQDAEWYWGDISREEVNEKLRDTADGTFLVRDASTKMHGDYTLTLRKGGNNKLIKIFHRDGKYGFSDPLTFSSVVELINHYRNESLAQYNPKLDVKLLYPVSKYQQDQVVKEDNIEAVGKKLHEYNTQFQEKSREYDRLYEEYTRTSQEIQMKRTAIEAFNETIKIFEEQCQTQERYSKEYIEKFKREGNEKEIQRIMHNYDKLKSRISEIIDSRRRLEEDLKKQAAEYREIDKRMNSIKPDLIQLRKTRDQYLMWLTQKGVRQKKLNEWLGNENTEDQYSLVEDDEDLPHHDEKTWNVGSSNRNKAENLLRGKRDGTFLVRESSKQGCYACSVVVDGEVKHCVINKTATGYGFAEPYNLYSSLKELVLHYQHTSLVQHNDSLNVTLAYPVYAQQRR
test_description: Evaluation of inhibitory activity against PI3K-δ (HTRF kinase assay)
Assay type: biochemical
test_conditions: compound concentration 0.1 μM; read-out: EXP_VALUE(% Inhibition) PI3K-δ 0.1 μM
Below: a set of entries, each annotated with reported inhibition at 0.1 µM.
API: value field is a number in %; no unit string.

Consider the reported inhibition at 0.1 µM for these compounds:
compound=Cc1c[nH]c2ccc(-c3cccc4c(Cl)c([C@H](C)Nc5ncnc6[nH]ccc(=O)c56)n(-c5ccccc5)c(=O)c34)cc12 readout_kind="inhibition at 0.1 µM" value_reported=88
compound=COc1cc(-c2cccc3c(Cl)c([C@H](C)Nc4ncnc5[nH]ccc(=O)c45)n(-c4ccccc4)c(=O)c23)ccc1Cl readout_kind="inhibition at 0.1 µM" value_reported=108

Attention now turns to another entry.
Problem: Fill in inhibition at 0.1 µM for record `C[C@H](Nc1ncnc2[nH]ccc(=O)c12)c1c(Cl)c2cccc(Sc3ccc(Cl)cc3)c2c(=O)n1-c1ccccc1`
Result: 10

* * *

tested_on: PI3K-δ (PI3K(p1108/p857) (h)) (Homo sapiens)
test_description: Evaluation of inhibitory activity against PI3K-δ (HTRF kinase assay)
Type: biochemical
test_conditions: compound concentration 0.01 μM; read-out: EXP_VALUE(% Inhibition) PI3K-δ 0.01 μM
Criterion: inhibition at 0.01 µM meeting or surpassing 30%. Met: satisfied. Not met: not satisfied.

molecule="C[C@H](Nc1ncnc2[nH]ccc(=O)c12)c1c(Cl)c2cccc(-c3ccnc(N4CCOCC4)c3)c2c(=O)n1-c1ccccc1 [Example 190]" group_label=satisfied
molecule="C[C@H](Nc1ncnc2[nH]ccc(=O)c12)c1c(Cl)c2cccc(N3CCC[C@H]3C(N)=O)c2c(=O)n1-c1ccccc1 [Example 337]" group_label="not satisfied"
molecule="C[C@H](Nc1ncnc2[nH]ccc(=O)c12)c1c(Cl)c2cccc(-c3ncc(C(F)(F)F)cn3)c2c(=O)n1-c1ccccc1 [Example 52]" group_label="not satisfied"

Problem: In plain terms: is recorded inhibition at 0.01 µM at least 30% for CNC(=O)c1ccc(-c2cccc3c(Cl)c([C@H](C)Nc4ncnc5[nH]ccc(=O)c45)n(-c4ccccc4)c(=O)c23)cn1 [Example 196] ?
Result: satisfied

Problem: In plain terms: is recorded inhibition at 0.01 µM at least 30% for Cc1ccc(-c2cccc3c(Cl)c([C@H](C)Nc4ncnc5[nH]ccc(=O)c45)n(-c4ccccc4)c(=O)c23)o1 [Example 98] ?
Result: satisfied

Problem: In plain terms: is recorded inhibition at 0.01 µM at least 30% for C[C@H](Nc1ncnc2[nH]ccc(=O)c12)c1c(Cl)c2cccc(/C=C/c3ccccc3)c2c(=O)n1-c1ccccc1 [Example 70] ?
Result: not satisfied

* * *

tested_on: DNA-PK(h) (Homo sapiens, UniProt P78527)
test_description: Evaluation of inhibitory activity against DNA-PK (HTRF kinase assay, GST-cMyc-p53 substrate)
Format: biochemical
test_conditions: compound concentration 0.01 μM; read-out: EXP_VALUE(% Inhibition) DNA-PK(h) 0.01 μM
readout_kind: inhibition at 0.01 µM (%)
API: value field is a number in %; no unit string.

Problem: Fill in inhibition at 0.01 µM for record `C[C@H](Nc1ncnc2[nH]ccc(=O)c12)c1c(Cl)c2cccc(-c3cccc(F)c3Cl)c2c(=O)n1-c1ccccc1`
Result: 14

Problem: Fill in inhibition at 0.01 µM for record `C[C@H](Nc1ncnc2[nH]ccc(=O)c12)c1c(Cl)c2cccc(-c3ccc4[nH]ncc4c3)c2c(=O)n1-c1ccccc1`
Result: 46

Problem: Fill in inhibition at 0.01 µM for record `COc1cc(-c2cccc3c(Cl)c([C@H](C)Nc4ncnc5[nH]ccc(=O)c45)n(-c4ccccc4)c(=O)c23)ccc1Cl`
Result: 54

Problem: Fill in inhibition at 0.01 µM for record `Cc1cc(-c2cccc3c(Cl)c([C@H](C)Nc4ncnc5[nH]ccc(=O)c45)n(-c4ccccc4)c(=O)c23)cnc1O`
Result: 87

Problem: Fill in inhibition at 0.01 µM for record `C[C@H](Nc1ncnc2[nH]ccc(=O)c12)c1c(Cl)c2cccc(/C=C/c3ccccc3)c2c(=O)n1-c1ccccc1`
Result: -1.2

Problem: Fill in inhibition at 0.01 µM for record `CNC(=O)c1ccc(-c2cccc3c(Cl)c([C@H](C)Nc4ncnc5[nH]ccc(=O)c45)n(-c4ccccc4)c(=O)c23)cc1`
Result: 81
